Reference source: patent US10660877B2

molecular target: human TLR7 (Homo sapiens (Human), UniProt Q9NYK1); experiment: TLR7 inhibition reporter assay (HEK-Blue cells, SEAP reporter, gardiquimod stimulation); format: cell-based; conditions: HEK-Blue cells overexpressing human TLR7, gardiquimod 7.5 μM
Sequence (Q9NYK1 27-1049): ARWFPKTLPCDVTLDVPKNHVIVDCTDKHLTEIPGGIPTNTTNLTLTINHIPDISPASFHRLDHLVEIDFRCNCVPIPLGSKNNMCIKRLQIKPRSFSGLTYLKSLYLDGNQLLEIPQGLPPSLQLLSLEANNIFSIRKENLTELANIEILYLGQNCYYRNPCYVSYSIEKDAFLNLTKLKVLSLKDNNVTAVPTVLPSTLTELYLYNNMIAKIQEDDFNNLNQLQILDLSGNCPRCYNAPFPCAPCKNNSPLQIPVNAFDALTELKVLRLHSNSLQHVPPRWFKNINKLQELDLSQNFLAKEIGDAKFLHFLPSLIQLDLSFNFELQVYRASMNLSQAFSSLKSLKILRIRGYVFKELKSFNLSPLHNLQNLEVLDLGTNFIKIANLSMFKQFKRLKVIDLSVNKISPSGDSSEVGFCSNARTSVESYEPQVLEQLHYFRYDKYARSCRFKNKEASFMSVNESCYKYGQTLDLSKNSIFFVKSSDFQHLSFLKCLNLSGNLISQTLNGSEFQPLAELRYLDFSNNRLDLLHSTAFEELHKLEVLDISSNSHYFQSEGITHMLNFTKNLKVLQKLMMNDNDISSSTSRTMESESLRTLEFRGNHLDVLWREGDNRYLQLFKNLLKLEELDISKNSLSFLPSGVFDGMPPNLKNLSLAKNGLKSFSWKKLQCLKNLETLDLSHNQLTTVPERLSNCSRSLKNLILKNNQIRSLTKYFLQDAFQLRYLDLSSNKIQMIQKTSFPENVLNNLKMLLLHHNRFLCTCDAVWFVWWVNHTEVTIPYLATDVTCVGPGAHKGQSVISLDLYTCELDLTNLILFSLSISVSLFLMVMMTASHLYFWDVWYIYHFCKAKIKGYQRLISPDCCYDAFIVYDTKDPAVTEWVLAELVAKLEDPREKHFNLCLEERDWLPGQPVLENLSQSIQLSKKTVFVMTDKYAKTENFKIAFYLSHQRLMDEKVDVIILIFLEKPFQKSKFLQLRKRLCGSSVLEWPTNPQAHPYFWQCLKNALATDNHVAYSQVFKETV
Entries annotated with measured log10 IC50
PARAMETER: log10 IC50 (log10 of the value in µM)

>>> number("CCOC(=O)N1CCC(c2ccc3[nH]c(-c4ccnc(C)c4)c(C(C)C)c3c2)CC1")
-0.61
>>> number("CCc1c(-c2cc(C)nc(C)c2)[nH]c2ccc(C3CCN(C(=O)CN(C)C)CC3)cc12")
-1.80
>>> number("Cc1cc(-c2[nH]c3ccc(C4CCN(CC(=O)NC5(C)COC5)CC4)cc3c2C(C)C)cc(C)n1")
-2.20
>>> number("CC(=O)N1CCC(c2ccc3[nH]c(-c4cc(C)nc(C5CC5)c4)c(C(C)C)c3c2)CC1")
-1.19
>>> number("Cc1cc(-c2[nH]c3ccc(C4CCN(CC(N)=O)CC4)cc3c2C(C)C)c(C)cn1")
-2.28
>>> number("Cc1cc(-c2[nH]c3ccc(C4CCN(C(=O)C5CC(=O)N(C)C5)CC4)cc3c2C(C)C)cc(F)n1 (stereo not drawn)")
-1.55
>>> number("Cc1cc(-c2[nH]c3ccc(C4CCN(C(=O)CN5CCCCC5C)CC4)cc3c2C(C)C)cc(C)n1 (stereo not drawn)")
-2.36
>>> number("CCc1c(-c2ccnc(OC)c2)[nH]c2ccc(C3CCN(C4CCCN(C5CCCC5)CC4)CC3)cc12 (stereo not drawn)")
-0.43
>>> number("COCCOCC(=O)N1CCC(c2ccc3[nH]c(-c4cc(C)nc(C)c4)c(C(C)C)c3c2)CC1")
-2.51
>>> number("Cc1cc(-c2[nH]c3ccc(C4CCN(CC(=O)N(C)C)CC4)cc3c2C(C)C)c(F)cn1")
-2.35
>>> number("CCc1c(-c2ccnc(OC)c2)[nH]c2ccc(C3CCN(C4CCN(C)CC4)CC3)cc12")
0.23
>>> number("Cc1cc(-c2[nH]c3ccc(C4CCN(Cc5ncn(C)n5)CC4)cc3c2C(C)C)c(C)cn1")
-1.11
>>> number("Cc1cc(-c2[nH]c3ccc(C4CCN(C(=O)CN(C)CC(F)F)CC4)cc3c2C(C)C)cc(C)n1")
-2.26
>>> number("Cc1cc(-c2[nH]c3ccc(C4CCN(CC(F)F)CC4)cc3c2C(C)C)cc(C)n1")
-1.81
>>> number("Cc1cc(-c2[nH]c3ccc(C4CCN(C5CC(C)OC(C)C5)CC4)cc3c2C(C)C)cc(C)n1 (stereo not drawn) [Example 454]")
-1.96
>>> number("Cc1cc(-c2[nH]c3ccc(C4CCN(C(C)C(=O)N(C)C)CC4)cc3c2CC(F)F)cc(C)n1 (stereo not drawn)")
-1.07
>>> number("Cc1cc(-c2[nH]c3cc(F)c(C4CCNCC4)cc3c2C(C)C)c(C)cn1")
-2.57
>>> number("Cc1cc(-c2[nH]c3ccc(C4CCN(C5CC(C)OC6(CC6)C5)CC4)cc3c2C(C)C)cc(C)n1 (stereo not drawn)")
-2.38
